biological target: CXCR4 receptor (human, UniProt P61073 1-352); experiment: cell-based or functional assay
Sequence (P61073 whole entry): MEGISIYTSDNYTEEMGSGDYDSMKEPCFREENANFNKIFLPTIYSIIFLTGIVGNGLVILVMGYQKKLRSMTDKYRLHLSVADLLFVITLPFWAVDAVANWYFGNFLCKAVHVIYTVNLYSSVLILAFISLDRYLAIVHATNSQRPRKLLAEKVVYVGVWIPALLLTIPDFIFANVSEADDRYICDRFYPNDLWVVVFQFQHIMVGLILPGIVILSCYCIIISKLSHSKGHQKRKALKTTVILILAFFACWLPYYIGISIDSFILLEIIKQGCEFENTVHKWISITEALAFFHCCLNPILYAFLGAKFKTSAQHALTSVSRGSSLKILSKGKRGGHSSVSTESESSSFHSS
Ends that are not written are not given here. * marks the point of attachment. C27H50N3O2SC(O)‑ = not defined here; Palmitoyl = CCCCCCCCCCCCCCCC(=O)*
endpointLabel: Max (% of vehicle), chemotaxis, CEM, 1.0 uM

Which Max (% of vehicle), chemotaxis, CEM, 1.0 uM reading was recorded for the binder Palmitoyl-IIISKLSHSKGHQKRKALKT (not fully specified (C-terminus); also: dual lipid, second lipid position not given here) [CXCR4 i3 loop compound 104] ?
56.4 % of vehicle

Then this binder: Palmitoyl-SKLSHSKGHQKRKALK-NH2 (SMILES CCCCCCCCCCCCCCCC(=O)N[C@@H](CO)C(=O)N[C@@H](CCCCN)C(=O)N[C@@H](CC(C)C)C(=O)N[C@@H](CO)C(=O)N[C@@H](Cc1c[nH]cn1)C(=O)N[C@@H](CO)C(=O)N[C@@H](CCCCN)C(=O)NCC(=O)N[C@@H](Cc1c[nH]cn1)C(=O)N[C@@H](CCC(N)=O)C(=O)N[C@@H](CCCCN)C(=O)N[C@@H](CCCNC(=N)N)C(=O)N[C@@H](CCCCN)C(=O)N[C@@H](C)C(=O)N[C@@H](CC(C)C)C(=O)N[C@@H](CCCCN)C(N)=O) [CXCR4 i3 loop compound 101]
74.9 % of vehicle

Then this binder: Palmitoyl-KLSHSKGHQKRKAL-NH2 (SMILES CCCCCCCCCCCCCCCC(=O)N[C@@H](CCCCN)C(=O)N[C@@H](CC(C)C)C(=O)N[C@@H](CO)C(=O)N[C@@H](Cc1c[nH]cn1)C(=O)N[C@@H](CO)C(=O)N[C@@H](CCCCN)C(=O)NCC(=O)N[C@@H](Cc1c[nH]cn1)C(=O)N[C@@H](CCC(N)=O)C(=O)N[C@@H](CCCCN)C(=O)N[C@@H](CCCNC(=N)N)C(=O)N[C@@H](CCCCN)C(=O)N[C@@H](C)C(=O)N[C@@H](CC(C)C)C(N)=O) [CXCR4 i3 loop compound 93]
54.8 % of vehicle

Then this binder: Palmitoyl-SHSKGHQKRKALK-NH2 (SMILES CCCCCCCCCCCCCCCC(=O)N[C@@H](CO)C(=O)N[C@@H](Cc1c[nH]cn1)C(=O)N[C@@H](CO)C(=O)N[C@@H](CCCCN)C(=O)NCC(=O)N[C@@H](Cc1c[nH]cn1)C(=O)N[C@@H](CCC(N)=O)C(=O)N[C@@H](CCCCN)C(=O)N[C@@H](CCCNC(=N)N)C(=O)N[C@@H](CCCCN)C(=O)N[C@@H](C)C(=O)N[C@@H](CC(C)C)C(=O)N[C@@H](CCCCN)C(N)=O) [CXCR4 i3 loop compound 96]
63.1 % of vehicle

Then this binder: Palmitoyl-HSKGHQKRKALKTTV-NH2 (SMILES CCCCCCCCCCCCCCCC(=O)N[C@@H](Cc1c[nH]cn1)C(=O)N[C@@H](CO)C(=O)N[C@@H](CCCCN)C(=O)NCC(=O)N[C@@H](Cc1c[nH]cn1)C(=O)N[C@@H](CCC(N)=O)C(=O)N[C@@H](CCCCN)C(=O)N[C@@H](CCCNC(=N)N)C(=O)N[C@@H](CCCCN)C(=O)N[C@@H](C)C(=O)N[C@@H](CC(C)C)C(=O)N[C@@H](CCCCN)C(=O)N[C@H](C(=O)N[C@H](C(=O)N[C@H](C(N)=O)C(C)C)[C@@H](C)O)[C@@H](C)O) [CXCR4 i3 loop compound 99]
64.5 % of vehicle

Then this binder: KLSHSKGHQKRKALKTTVIL-NH2 (not fully specified (N-terminus); also: dual lipid, backbone lipid not given here) [CXCR4 i3 loop compound 105]
42.9 % of vehicle

Then this binder: Palmitoyl-LSHSKGHQKRKALK-NH2 (SMILES CCCCCCCCCCCCCCCC(=O)N[C@@H](CC(C)C)C(=O)N[C@@H](CO)C(=O)N[C@@H](Cc1c[nH]cn1)C(=O)N[C@@H](CO)C(=O)N[C@@H](CCCCN)C(=O)NCC(=O)N[C@@H](Cc1c[nH]cn1)C(=O)N[C@@H](CCC(N)=O)C(=O)N[C@@H](CCCCN)C(=O)N[C@@H](CCCNC(=N)N)C(=O)N[C@@H](CCCCN)C(=O)N[C@@H](C)C(=O)N[C@@H](CC(C)C)C(=O)N[C@@H](CCCCN)C(N)=O) [CXCR4 i3 loop compound 95]
92.1 % of vehicle

Then this binder: Palmitoyl-KLSHSKGHQKRKA-NH2 (SMILES CCCCCCCCCCCCCCCC(=O)N[C@@H](CCCCN)C(=O)N[C@@H](CC(C)C)C(=O)N[C@@H](CO)C(=O)N[C@@H](Cc1c[nH]cn1)C(=O)N[C@@H](CO)C(=O)N[C@@H](CCCCN)C(=O)NCC(=O)N[C@@H](Cc1c[nH]cn1)C(=O)N[C@@H](CCC(N)=O)C(=O)N[C@@H](CCCCN)C(=O)N[C@@H](CCCNC(=N)N)C(=O)N[C@@H](CCCCN)C(=O)N[C@@H](C)C(N)=O) [CXCR4 i3 loop compound 94]
80.5 % of vehicle

Then this binder: Palmitoyl-HSKGHQKRKALKTTVI-NH2 (SMILES CCCCCCCCCCCCCCCC(=O)N[C@@H](Cc1c[nH]cn1)C(=O)N[C@@H](CO)C(=O)N[C@@H](CCCCN)C(=O)NCC(=O)N[C@@H](Cc1c[nH]cn1)C(=O)N[C@@H](CCC(N)=O)C(=O)N[C@@H](CCCCN)C(=O)N[C@@H](CCCNC(=N)N)C(=O)N[C@@H](CCCCN)C(=O)N[C@@H](C)C(=O)N[C@@H](CC(C)C)C(=O)N[C@@H](CCCCN)C(=O)N[C@H](C(=O)N[C@H](C(=O)N[C@H](C(=O)N[C@H](C(N)=O)[C@@H](C)CC)C(C)C)[C@@H](C)O)[C@@H](C)O) [CXCR4 i3 loop compound 100]
49.8 % of vehicle

Then this binder: {C27H50N3O2SC(O)‑}-HSKGHQKRKQALK-NH2 (reading uncertain) [CXCR4 i3 loop compound 87]
76.1 % of vehicle

Then this binder: IIISKLSHSKGHQKRKALKT-NH2 (not fully specified (N-terminus); also: dual lipid, backbone lipid not given here) [CXCR4 i3 loop compound 103]
24.4 % of vehicle

Origin of the recorded values: patent US20130210709A1
